tested on: CCRIS mutagenicity, Ames/micronucleus/aberration tests; test: CCRIS mutagenicity studies; conditions: Test System: AMES SALMONELLA TYPHIMURIUM; Strain/Indicator: TA1535; Metabolic Activation: NONE; Method: PREINCUBATION
Activity calls are given as the source filed them. The rule behind the calls is not given here. Where a SMILES comes first, the peptide text is derived from it. [ ]: non-standard residue; d: D form. ξ: configuration not given here. Trp(1-OMe) = COn1cc(C[C@H](N)C(=O)O)c2ccccc21; Asu = N[C@@H](CCCCCC(=O)O)C(=O)O; Ile(3ξ) = CCC(C)[C@H](N)C(=O)O; dPip = O=C(O)[C@H]1CCCCN1
Labels: active, inactive

| Compound | Test target | Category label |
| --- | --- | --- |
| CN(C)CCCN | CCRIS mutagenicity, Ames/micronucleus/aberration tests | inactive |
| OCCNCCO | CCRIS mutagenicity, Ames/micronucleus/aberration tests | inactive |
| NCCCN | CCRIS mutagenicity, Ames/micronucleus/aberration tests | inactive |
| ClC(Cl)(Cl)C1CO1 (stereo unspecified) | CCRIS mutagenicity, Ames/micronucleus/aberration tests | active |
| Nc1ccccc1S(=O)(=O)O | CCRIS mutagenicity, Ames/micronucleus/aberration tests | inactive |
| CC(=O)CC(=O)Nc1ccc(C)cc1 | CCRIS mutagenicity, Ames/micronucleus/aberration tests | inactive |
| OC(CCl)CCl | CCRIS mutagenicity, Ames/micronucleus/aberration tests | active |
| CC(=O)N[C@@H]1[C@@H](O[C@@H]2O[C@H](C(=O)O)[C@@H](O[C@@H]3O[C@H](CO)[C@@H](O)[C@H](O[C@@H]4O[C@H](C(=O)O)[C@@H](O)[C@H](O)[C@H]4O)[C@H]3NC(C)=O)[C@H](O)[C@H]2O)[C@H](O)[C@@H](CO)O[C@H]1O | CCRIS mutagenicity, Ames/micronucleus/aberration tests | inactive |
| CNc1ccc(N(CCO)CCO)cc1[N+](=O)[O-] | CCRIS mutagenicity, Ames/micronucleus/aberration tests | inactive |
| Brc1cccc(-c2ccccc2)c1 | CCRIS mutagenicity, Ames/micronucleus/aberration tests | inactive |
| O=c1ccc(=O)c2c(=O)c(Cl)c(Cl)c(=O)c1=2 | CCRIS mutagenicity, Ames/micronucleus/aberration tests | inactive |
| N#Cc1ccccc1 | CCRIS mutagenicity, Ames/micronucleus/aberration tests | inactive |
| CCOC(=O)c1ccccc1C(=O)OCC | CCRIS mutagenicity, Ames/micronucleus/aberration tests | inactive |
| CC(O)C(C)O (stereo unspecified) | CCRIS mutagenicity, Ames/micronucleus/aberration tests | inactive |
| c1ccc2cc(Nc3ccc(Nc4ccc5ccccc5c4)cc3)ccc2c1 | CCRIS mutagenicity, Ames/micronucleus/aberration tests | inactive |
| CC(C)C(=O)OCC(C)(C)C(O)C(C)C (stereo unspecified) | CCRIS mutagenicity, Ames/micronucleus/aberration tests | inactive |
| O=P(O)(O)O | CCRIS mutagenicity, Ames/micronucleus/aberration tests | inactive |
| CCC(C)[C@@H]1NC(=O)[C@H](Cc2cn(OC)c3ccccc23)NC(=O)[C@H](CCCCCC(=O)OC)NC(=O)[C@H]2CCCCN2C1=O (stereo partly specified) (cyclo([Asu](OMe)[Trp(1-OMe)][Ile(3ξ)][dPip])) | CCRIS mutagenicity, Ames/micronucleus/aberration tests | inactive |
| CC1CCC(C(C)CS)CC1S (stereo unspecified) | CCRIS mutagenicity, Ames/micronucleus/aberration tests | inactive |
| CC(COC(=O)c1ccccc1)(COC(=O)c1ccccc1)COC(=O)c1ccccc1 | CCRIS mutagenicity, Ames/micronucleus/aberration tests | inactive |
| Clc1cc(Cl)c(Cl)c(Cl)c1 | CCRIS mutagenicity, Ames/micronucleus/aberration tests | inactive |
| O=C(Cl)c1ccc([N+](=O)[O-])cc1 | CCRIS mutagenicity, Ames/micronucleus/aberration tests | active |
| ClCC(Br)CBr (stereo unspecified) | CCRIS mutagenicity, Ames/micronucleus/aberration tests | inactive |
| CCOc1cccc([N+](=O)[O-])c1 | CCRIS mutagenicity, Ames/micronucleus/aberration tests | inactive |
| CCC[CH2][Sn]([CH2]CCC)([O]C(C)=O)[O]C(C)=O | CCRIS mutagenicity, Ames/micronucleus/aberration tests | inactive |
| CCCC(=O)Nc1ncnc2c1ncn2[C@@H]1O[C@@H]2COP(=O)(O)O[C@H]2[C@H]1OC(=O)CCC | CCRIS mutagenicity, Ames/micronucleus/aberration tests | inactive |
